Provide the recorded Emax for the entries that follow.
# SUBJECT_OF_TEST: RET(KD: 658-1114 G810R) (Homo sapiens, UniProt P07949, G810R)
# Construct: 658-1114; expressed in transfected cells; host or cells: 293T.165 (293T cells, generated in-house)
# Sequence (P07949 658-1114 G810R): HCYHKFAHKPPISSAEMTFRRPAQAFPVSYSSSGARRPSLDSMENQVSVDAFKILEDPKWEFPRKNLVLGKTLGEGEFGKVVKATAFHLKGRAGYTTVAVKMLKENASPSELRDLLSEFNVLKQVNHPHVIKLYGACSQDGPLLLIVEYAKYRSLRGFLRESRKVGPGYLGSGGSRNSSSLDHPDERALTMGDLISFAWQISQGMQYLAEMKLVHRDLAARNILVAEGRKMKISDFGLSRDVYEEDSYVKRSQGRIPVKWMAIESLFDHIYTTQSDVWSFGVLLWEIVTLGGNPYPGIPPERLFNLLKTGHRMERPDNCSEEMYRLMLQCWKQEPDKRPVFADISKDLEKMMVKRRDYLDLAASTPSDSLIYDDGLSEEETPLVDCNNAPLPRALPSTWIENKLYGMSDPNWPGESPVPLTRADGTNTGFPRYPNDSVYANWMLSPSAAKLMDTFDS
# TEST_METHOD_NOTES: HiBiT-Degradation, RET G810R degradation assay (Nano-Glo HiBiT Lytic), 293T.165 cells
# Type: cell-based
# RUN_CONDITIONS: 6.0 hours, % remaining protein, read-out: 293T.165 RET(KD: 658-1114 G810R) 6.0 hours (Emax)

Consider the reported Emax for these compounds:
N#Cc1cnn2cc(-c3cnn([C@H]4CC[C@H](N5CCN(c6cc(F)c(NC7CCC(=O)NC7=O)cc6F)CC5)CC4)c3)nc(-c3ccc(N4CC5COCC(C4)N5Cc4ccccn4)nc3)c12 (relative stereo)	< 30%
COc1ccc(CN2C3CC2CN(c2ccc(-c4nc(-c5cnn([C@H]6CC[C@@H](N7CCC(c8cc9c(cc8F)c(N8CCC(=O)NC8=O)nn9C)C(F)(F)C7)CC6)c5)cn5ncc(C#N)c45)cn2)C3)cn1 (relative stereo)	< 50%
N#Cc1cnn2cc(-c3cnn(C4CCN(C(=O)CC5(O)CCN(c6ccc(NC7CCC(=O)NC7=O)cc6F)CC5)CC4)c3)nc(-c3ccc(N4CCC(Oc5ccccn5)CC4)nc3)c12 (stereo not shown)	< 30%
N#Cc1cnn2cc(-c3ccc(N4CCN(C(=O)CN5CCC(c6ccc(NC7CCC(=O)NC7=O)cc6)CC5)CC4)cc3)cc(-c3ccc(N4CC5CC5C4)nc3)c12 (stereo not shown)	< 30%
Cn1nc(N2CCC(=O)NC2=O)c2ccc(C3CCN(CC(=O)N4CCC(n5cc(-c6cc(-c7ccc(N8CCN(Cc9ccccn9)CC8)nc7)c7c(C#N)cnn7c6)cn5)CC4)CC3)cc21	< 50%

Need Emax for each of these compounds.
1. CC(=O)N1CCN(c2ccc(-c3nc(-c4ccc(N5CCN(C(=O)CN6CCC(c7ccc(NC8CCC(=O)NC8=O)cc7)CC6)CC5)cc4)cn4ncc(C#N)c34)cn2)CC1 (stereo not shown)
2. CCC1(C(=O)NC2CCC2)CCN(c2ccc(-c3nc(-c4cnn([C@H]5CC[C@H](N6CCC(c7ccc(N[C@H]8CCC(=O)NC8=O)cc7Cl)CC6)CC5)c4)cn4ncc(C#N)c34)cn2)CC1 (single isomer, unassigned)
3. COc1ccc(CC2(C(=O)NC(C)C)CCN(c3ccc(-c4nc(-c5cnn([C@H]6CC[C@H](N7CCN(c8cc(OC)c(NC9CCC(=O)NC9=O)cc8F)CC7)CC6)c5)cn5ncc(C#N)c45)cn3)CC2)nc1 (stereo partly shown)
4. N#Cc1cnn2cc(-c3cnn(C4CCN(C(=O)CC5(O)CCN(c6ccc(NC7CCC(=O)NC7=O)cc6F)CC5)CC4)c3)nc(-c3ccc(N4CCC5(CC4)OCc4cccnc45)nc3)c12 (stereo not shown)
5. CCC1(C(=O)NC(C)C)CCN(c2ccc(-c3nc(-c4cnn(C5CCN(C(=O)CC6(O)CCN(c7ccc(NC8CCC(=O)NC8=O)cc7F)CC6)CC5)c4)cn4ncc(C#N)c34)cn2)CC1 (stereo not shown)
6. N#Cc1cnn2cc(-c3cnn(C4CCN(C(=O)CC5(O)CCN(c6ccc(NC7CCC(=O)NC7=O)cc6F)CC5)CC4)c3)nc(-c3ccc(N4CCC(c5ncccn5)CC4)nc3)c12 (stereo not shown)

[reply]
< 30%
< 30%
< 30%
< 30%
< 50%
< 30%

Need Emax for each of these compounds.
1. CCC1(C(=O)NC2CCC2)CCN(c2ccc(-c3cc(-c4cnn(C5CCN(C(=O)CN6CCC(c7ccc(NC8CCC(=O)NC8=O)cc7F)CC6)CC5)c4)cn4ncc(C#N)c34)cn2)CC1 (stereo not shown)
2. N#Cc1cnn2cc(-c3ccc(N4CCN(C(=O)CN5CCC(c6ccc(NC7CCC(=O)NC7=O)cc6F)CC5)CC4)cc3)nc(-c3ccc(N4CC5CC(C4)N5Cc4ccccc4)nc3)c12 (stereo not shown)
3. CCC1(C(=O)NC(C)C)CCN(c2ccc(-c3cc(-c4cnn([C@H]5CC[C@@H](N6CCC(c7ccc(NC8CCC(=O)NC8=O)cc7F)CC6)CC5)c4)cn4ncc(C#N)c34)cn2)CC1 (stereo partly shown)
4. CCC1(C(=O)NC(C)C)CCN(c2ccc(-c3nc(-c4cnn([C@H]5CC[C@H](N6CCC(c7ccc(N[C@@H]8CCC(=O)NC8=O)cc7F)CC6)CC5)c4)cn4ncc(C#N)c34)cn2)CC1 (single isomer, unassigned)
5. CCC1(C(=O)NC(C)(C)C)CCN(c2ccc(-c3nc(-c4cnn([C@H]5CC[C@H](N6CCN(c7c(F)cc(N[C@@H]8CCC(=O)NC8=O)cc7F)CC6)CC5)c4)cn4ncc(C#N)c34)cn2)CC1 (racemic)

[reply]
1: < 30%; 2: < 30%; 3: < 50%; 4: < 30%; 5: < 30%

Need Emax for each of these compounds.
1. CC(C)NC(=O)C1(C)CCN(c2ccc(-c3cc(-c4ccc(N5CCN(C(=O)CC6(O)CCN(c7ccc(NC8CCC(=O)NC8=O)cc7F)CC6)CC5)cc4)cn4ncc(C#N)c34)cn2)CC1 (stereo not shown)
2. CCC1(C(=O)NC(C)C)CCN(c2ccc(-c3cc(-c4cnn([C@H]5CC[C@H](N6CCC(c7ccc(N[C@H]8CCC(=O)NC8=O)cc7F)CC6)CC5)c4)cn4ncc(C#N)c34)cn2)CC1 (single isomer, unassigned)

[reply]
1: < 50%; 2: < 30%

[ask] Requested read-out: Emax. Entry: CCC1(C(=O)NC(C)C)CCN(c2ccc(-c3cc(-c4cnn(C5CCN(C(=O)CN6CCC(c7ccc(NC8CCC(=O)NC8=O)cc7F)CC6)CC5)c4)cn4ncc(C#N)c34)cn2)CC1 (stereo not shown)
[reply] < 30%
